# SYSTEM_TESTED: Calcium/calmodulin-dependent protein kinase type II subunit delta (Homo sapiens)
# Sequence (Q13557 whole entry): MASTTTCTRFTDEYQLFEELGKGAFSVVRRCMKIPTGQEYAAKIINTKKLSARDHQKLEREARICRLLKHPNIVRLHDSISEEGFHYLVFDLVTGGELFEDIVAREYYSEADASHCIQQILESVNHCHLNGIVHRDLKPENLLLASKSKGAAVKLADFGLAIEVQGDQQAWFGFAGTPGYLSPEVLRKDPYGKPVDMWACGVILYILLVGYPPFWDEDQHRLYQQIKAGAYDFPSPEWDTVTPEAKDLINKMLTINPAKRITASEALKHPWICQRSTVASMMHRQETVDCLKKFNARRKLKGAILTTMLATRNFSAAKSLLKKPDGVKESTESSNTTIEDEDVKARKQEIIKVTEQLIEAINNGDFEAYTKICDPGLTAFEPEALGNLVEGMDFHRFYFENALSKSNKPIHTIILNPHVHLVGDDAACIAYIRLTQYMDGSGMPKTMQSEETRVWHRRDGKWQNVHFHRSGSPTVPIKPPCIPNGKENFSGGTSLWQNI
# ASSAY_NAME: Inhibition of human recombinant CAMK2delta using tetramethylbenzidine as substrate by spectrophotometry analysis
VALUE_TYPE: pIC50
pIC50 here is simply -log10 of the concentration when that concentration is written in mol/L.

Kindly note the recorded pIC50 for CN([C@@H](Cc1ccc(OS(=O)(=O)c2cccc3cnccc23)cc1)C(=O)N1CCN(c2ccccc2)CC1)S(=O)(=O)c1cccc2cnccc12 , which is 6.42

Cited source for all entries: ChEMBL document CHEMBL1938361
